protocol_text: Metabolic stability in mouse liver microsomes
Assay type: in vitro ADME
settings: MLMs, 120 min
Param label: returns yes when metabolic stability, % of remaining < 70%, returns no otherwise, including exact equality.

O=S(=O)(NCCCCCCNc1ncc2ccccc2n1)c1cccc2ccccc12 [PP 15]    yes
CC1NC(NCCCCCCNS(=O)(=O)c2cccc3ccccc23)=Nc2c(Cl)cc(Cl)cc21 (stereo not shown) [PP 12]    no
CC1NC(NCCCCCCNS(=O)(=O)c2cccc3ccccc23)=Nc2ccccc21 (stereo not shown) [PP 10]    yes
O=S(=O)(c1cccc2ccccc12)N1CCN(CCNC2=Nc3ccccc3CN2)CC1 [PP 6]    no
O=S1(=O)c2cccc3cccc(c23)N1CCCCCCNC1=Nc2ccccc2CN1 [PP 24]    no

Q: Would you kindly verify if metabolic stability, % of remaining of CC1NC(NCCCCCCNS(=O)(=O)c2cccc3ccccc23)=Nc2cccc(F)c21 (stereo not shown) [PP 11] is strictly less than 70%?
Result: no

Q: Does the reported metabolic stability, % of remaining of the following compound sit strictly below 70%? CC1NC(NCCCCCCNS(=O)(=O)c2c(Cl)ccc3ccccc23)=Nc2ccccc21 (stereo not shown) [PP 13]
Result: yes

----------
A set of compounds tested on 5-HT5A (Homo sapiens), with measured Ki:
# output: bare number, implied unit nM

Record excerpt, results attached:
O=S(=O)(NCCCCCCNc1ncc2ccccc2n1)c1cccc2ccccc12    1090
CC1NC(NCCCCCCNS(=O)(=O)c2cccc3ccccc23)=Nc2ccccc21 (stereo not drawn)    59

Please find the next compound below.
Q: Ki for O=S(=O)(c1cccc2ccccc12)N1CCN(CCNC2=Nc3ccccc3CN2)CC1 ?
Result: 328

----------
Tested on: normal human astrocytes (NHA)
protocol_text: Cytotoxicity (MTS), normal human astrocytes
Assay type: cell-based
settings: normal human astrocytes, MTS assay, 72 h
property_measured: pIC50
Units for pIC50: none; it is -log10 of a concentration expressed in mol/L.

Q: Please report the recorded pIC50 for CC1NC(NCCCCCCNS(=O)(=O)c2cccc3ccccc23)=Nc2cccc(F)c21 (stereo not shown) .
Result: 5.36

----------
protocol_text: Solubility in DMSO and 10% DMSO in PBS buffer
Type: physicochemical
settings: 100% DMSO, 10 mM; symbols not defined
property_measured: Solubility, 100% DMSO, 10 mM

CC1NC(NCCCCCCNS(=O)(=O)c2c(Cl)ccc3ccccc23)=Nc2ccccc21 (stereo not shown) [PP 13]    + + +
CC1NC(NCCCCCCNS(=O)(=O)c2cccc3ccccc23)=Nc2ccccc21 (stereo not shown) [PP 10]    + + +
O=S(=O)(NCCCCCCNc1ncc2ccccc2n1)c1cccc2ccccc12 [PP 15]    + + -
O=S1(=O)c2cccc3cccc(c23)N1CCCCCCNC1=Nc2ccccc2CN1 [PP 24]    + + +

----------
protocol_text: Metabolic stability in mouse liver microsomes
Type: in vitro ADME
settings: MLMs, 120 min
Excerpt: Moving on to the next parameter, which is metabolism, we determined metabolic stability, using mouse liver microsomes (MLMs). […] Main metabolic pathways are marked in red.
property_measured: main metabolic pathway

O=S1(=O)c2cccc3cccc(c23)N1CCCCCCNC1=Nc2ccccc2CN1 [PP 24]    hydroxylation
O=S(=O)(NCCCCCCNc1ncc2ccccc2n1)c1cccc2ccccc12 [PP 15]    hydroxylation

Values were extracted from paper PMC11866022.
